Test: Volume of distribution in Balb/c nude mouse at 1 mg/kg, iv
Format: ADME, organism-based
Settings: in vivo
recorded_endpoint: Vd (L/kg)

> print(dat)
                               query.smiles  observed.value
1  CC(=O)N1CCN([C@H]2CC[C@H](c3cc(OC4CC4)c(Nc4ncc(Cl)c(Nc5cn(C)nc5S(=O)(=O)C(C)C)n4)cc3C)CC2)CC1             4.6

----------
Assay: Clearance in Balb/c nude mouse at 1 mg/kg, iv
Format: ADME, organism-based
Settings: in vivo
recorded_endpoint: clearance

> print(dat)
                               query.smiles  recorded.endpoint  observed.value
1  CC(=O)N1CCN([C@H]2CC[C@H](c3cc(OC4CC4)c(Nc4ncc(Cl)c(Nc5cn(C)nc5S(=O)(=O)C(C)C)n4)cc3C)CC2)CC1          clearance  37.5 mL/min/kg

Sourced from ChEMBL document CHEMBL3785058
